Recorded protein stability index by entry
B1: ANKRD9 (parent)
chain: LLEDMRASEAFHWDERGRAAAYSP

- Variants of: B1
- protocol-notes: protein stability index of a GFP-peptide fusion (GPS, HEK-293T) (PSI 1-6); higher = more stable;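 also: lentivirally expressed fusions sorted by FACS into six bins by GFP to DsRed ratio, PSI derived from sequencing read proportions per bin multiplied by bin number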
- details: c terminus: a fixed tail appended
Give your answer as a number; write no unit.

Consider the following illustrative entries.
| alteration | protein stability index |
| --- | --- |
| F11R | 2.87 |
| H12M | 1.68 |

Prompt: Field request: protein stability index | item: "D4V"
Completion: 2.19

Prompt: Field request: protein stability index | item: "A10R"
Completion: 1.86

Prompt: Field request: protein stability index | item: "D4C"
Completion: 2.44

Prompt: Field request: protein stability index | item: "A10D"
Completion: 1.23

Prompt: Field request: protein stability index | item: "L2N"
Completion: 3.3

Prompt: Field request: protein stability index | item: "A19I"
Completion: 1.03

Prompt: Field request: protein stability index | item: "P24D"
Completion: 1.75

Prompt: Field request: protein stability index | item: "A21S"
Completion: 1.62

Prompt: Field request: protein stability index | item: "L1V"
Completion: 2.91

Reference for the values: the supplement of paper PMC10567573
